Every entry's value here was drawn from patent US20220227789A1.

Each entry below carries its recorded pIC50.
assayed_target: HBV core protein (C-terminal truncated, 149 aa assembly domain) (Hepatitis B virus genotype D subtype adw, UniProt P03147, C107A/C48A/C61A)
Construct: The C-terminal truncated core protein containing 149 amino acids of the N-terminal assembly domain; made in house; host or cells: E. coli BL21 (DE3) Rosetta2, plasmid pET21b
Sequence (P03147 1-150, looked up, stated change not applied): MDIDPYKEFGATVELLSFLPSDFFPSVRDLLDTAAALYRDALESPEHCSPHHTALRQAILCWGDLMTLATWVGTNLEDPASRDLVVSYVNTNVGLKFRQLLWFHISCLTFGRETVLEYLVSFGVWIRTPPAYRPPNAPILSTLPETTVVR
assay_comment: Biochemical capsid assembly assay (fluorescence quenching)
experimental_parameters: BODIPY-FL labelled core protein, assembly started with NaCl, read after 6 min; read-out: Assembly Activity
pIC50: −log10 of the molar value.
quantity_measured: pIC50

{"molecule": "CC1Cn2ncc(C(=O)N(C)C3(COC(F)F)CC3)c2CN1C(=O)c1cc2c(Cl)cccn2c1 (centres unmarked) [Example 9]", "quantity_measured": "pIC50", "endpoint_value": "> 5.30"}
{"molecule": "O=C(c1cc2ccccn2c1)N1CCc2[nH]nc(-c3cscn3)c2C1 [Example 37]", "quantity_measured": "pIC50", "endpoint_value": "> 5.30"}
{"molecule": "CC1Cc2[nH]nc(-c3cscn3)c2CN1C(=O)c1cc2c(Cl)cc(Cl)cn2c1 (centres unmarked) [Example 18]", "quantity_measured": "pIC50", "endpoint_value": "5.00 to 5.30"}
{"molecule": "O=C(c1cc2ccccn2c1)N1CCc2noc(-c3cscn3)c2C1 [Example 34]", "quantity_measured": "pIC50", "endpoint_value": "> 5.30"}
{"molecule": "CC1Cc2[nH]nc(-c3cscn3)c2CN1C(=O)c1cc2ccccn2c1 (centres unmarked) [Example 26]", "quantity_measured": "pIC50", "endpoint_value": "> 5.30"}
{"molecule": "O=C(NC1(C(F)(F)F)CC1)c1[nH]nc2c1CN(C(=O)c1cc3ccccn3c1)CC2 [Example 33]", "quantity_measured": "pIC50", "endpoint_value": "> 4.00"}
{"molecule": "CC1Cc2[nH]nc(-c3cscn3)c2CN1C(=O)c1cc2cc(Cl)c(F)cn2c1 (centres unmarked) [Example 22]", "quantity_measured": "pIC50", "endpoint_value": "5.00 to 5.30"}
{"molecule": "O=C(c1cc2ccccn2c1)N1CCc2[nH]nc(-c3ccon3)c2C1 [Example 31]", "quantity_measured": "pIC50", "endpoint_value": "> 5.30"}
{"molecule": "COCC1(N(C)C(=O)c2[nH]nc3c2CN(C(=O)c2cc4c(Cl)cccn4c2)CC3)CC1 [Example 3]", "quantity_measured": "pIC50", "endpoint_value": "> 5.30"}
{"molecule": "CC(NC(=O)c1onc2c1CN(C(=O)c1cc3ccccn3c1)CC2)C(F)(F)F (centres unmarked) [Example 53]", "quantity_measured": "pIC50", "endpoint_value": "> 5.30"}
{"molecule": "CN(C(=O)c1cnn2c1CN(C(=O)c1cc3c(Cl)cccn3c1)CC2)C1(COC(F)F)CC1 [Example 6]", "quantity_measured": "pIC50", "endpoint_value": "> 5.30"}
{"molecule": "CC1Cc2[nH]nc(-c3cscn3)c2CN1C(=O)c1cc2c(C(F)(F)F)cccn2c1 (centres unmarked) [Example 25]", "quantity_measured": "pIC50", "endpoint_value": "5.00 to 5.30"}
{"molecule": "C[C@H](NC(=O)c1[nH]nc2c1CN(C(=O)c1cc3ccccn3c1)CC2)C(F)(F)F [Example 45]", "quantity_measured": "pIC50", "endpoint_value": "> 4.00"}
{"molecule": "C[C@@H](NC(=O)c1[nH]nc2c1CN(C(=O)c1cc3ccccn3c1)CC2)C(F)(F)F [Example 46]", "quantity_measured": "pIC50", "endpoint_value": "> 4.00"}
{"molecule": "COCC1(N(C)C(=O)c2[nH]nc3c2CN(C(=O)c2cc4cccc(Cl)n4c2)CC3)CC1 [Example 4]", "quantity_measured": "pIC50", "endpoint_value": "5.00 to 5.30"}
{"molecule": "O=C(c1cc2ccccn2c1)N1CCn2ncc(-c3cscn3)c2C1 [Example 43]", "quantity_measured": "pIC50", "endpoint_value": "> 5.30"}
{"molecule": "CC1Cc2[nH]nc(-c3cscn3)c2CN1C(=O)c1cc2c(F)cccn2c1 (centres unmarked) [Example 24]", "quantity_measured": "pIC50", "endpoint_value": "> 5.30"}

---

assayed_target: HBV core protein (C-terminal truncated, 149 aa assembly domain) (Hepatitis B virus genotype D subtype adw, UniProt P03147, C107A/C48A/C61A)
Construct: The C-terminal truncated core protein containing 149 amino acids of the N-terminal assembly domain; made in house; host or cells: E. coli BL21 (DE3) Rosetta2, plasmid pET21b
assay_comment: Biochemical capsid assembly assay (fluorescence quenching)
experimental_parameters: BODIPY-FL labelled core protein, assembly started with NaCl, read after 6 min; read-out: Assembly Activity

{"molecule": "O=C(NCC1CCCO1)c1[nH]nc2c1CN(C(=O)c1cc3ccccn3c1)CC2 (centres unmarked)", "IC50": "< 100 µM"}
{"molecule": "Cc1cccc2cc(C(=O)N3Cc4c(-c5cscn5)n[nH]c4CC3C)cn12 (centres unmarked)", "IC50": "5 to 10 µM"}
{"molecule": "CC1Cc2[nH]nc(-c3cscn3)c2CN1C(=O)c1cc2ccc(F)cn2c1 (centres unmarked)", "IC50": "< 5 µM"}
{"molecule": "O=C(c1cc2ccccn2c1)N1CCc2[nH]nc(-n3ccnn3)c2C1", "IC50": "< 100 µM"}
{"molecule": "CC1Cc2[nH]nc(-c3cscn3)c2CN1C(=O)c1cc2c(Cl)cccn2c1 (centres unmarked)", "IC50": "< 5 µM"}
{"molecule": "O=C(NCC1CCCOC1)c1[nH]nc2c1CN(C(=O)c1cc3ccccn3c1)CC2 (centres unmarked)", "IC50": "< 100 µM"}
{"molecule": "COCC1(N(C)C(=O)c2[nH]nc3c2CN(C(=O)c2cc4c(F)cc(F)cn4c2)CC3)CC1", "IC50": "< 5 µM"}
{"molecule": "CC1Cc2n[nH]c(C(=O)NC(C)C(F)(F)F)c2CN1C(=O)c1cc2c(Cl)cccn2c1 (centres unmarked)", "IC50": "< 100 µM"}
